- PROCEDURE_TEXT: qHTS for differential inhibitors of proliferation of Plasmodium falciparum line Dd2 (AID 1882); also: nearly all actives have a fitted effect of over 65% in size; also: potency is read from the fitted curve at half-maximal effect
- RUN_CONDITIONS: Plasmodium falciparum Dd2 proliferation inhibition; series mostly up to 28.7 µM
Records with an inconclusive call do not appear. Activity calls are given as the source filed them. Calls follow the shape of the dose curve; as a rule, active = well fitted inhibition curve with a large enough effect; inconclusive = small, poorly fitted or top-dose-only effect; inactive = flat fitted curve, though single readings scatter.
REPORTED_ENDPOINT: Potency

# example entries with known answers
| COMPOUND | REPORTED_ENDPOINT | RESULT |
| --- | --- | --- |
| O=[N+]([O-])c1cc(O)c(O)c([N+](=O)[O-])c1 | Potency | inactive |
| CCCN(CCC)C1CCc2cccc(O)c2C1 (stereo not drawn) | Potency | inactive |
| NC(N)=Nc1ccc2[nH]c3c(c2c1)C[C@@]1(O)[C@H]2Cc4ccc(O)c5c4[C@@]1(CCN2CC1CC1)[C@H]3O5 | Potency | inactive |
| O=C1C=CC(=O)C=C1 | Potency | inactive |
| Oc1ccc2c3c1O[C@H]1c4[nH]c5ccccc5c4C[C@@]4(O)C(C2)N(CC2CC2)CCC314 (stereo partly drawn) | Potency | 8.91 µM (active) |
| NC(CCCCCP(=O)(O)O)C(=O)O (stereo not drawn) | Potency | inactive |
| CC(C)(C)c1cc(C=C(C#N)C#N)cc(C(C)(C)C)c1O | Potency | 0.891 µM (active) |
| NCC(CP(=O)(O)O)c1ccc(Cl)cc1 (stereo not drawn) | Potency | inactive |
| C[C@@H]1O[C@H](C[N+](C)(C)C)CS1 | Potency | inactive |
| OCc1cnc[nH]1 | Potency | inactive |

Param item = CC1(C(=O)O)C2CCC(O2)C1(C)C(=O)O (stereo not drawn) ; retrieve measured Potency.
5.01 µM (active)

Param item = `CP(=O)(O)C1=CCNCC1` ; retrieve measured Potency.
inactive

====

- System: CP266
- PROCEDURE_TEXT: qHTS profiling for inhibitors of Plasmodium falciparum proliferation (AID 504749); also: nearly all actives have a fitted effect of over 60% in size
- RUN_CONDITIONS: P. falciparum in erythrocytes, SYBR Green DNA, 72 h; series mostly up to 28.7 µM
Records with an inconclusive call do not appear. Active and inactive are the calls of the source. Calls follow the shape of the dose curve; as a rule, active = well fitted inhibition curve with a large enough effect; inconclusive = small, poorly fitted or top-dose-only effect; inactive = flat fitted curve, though single readings scatter.
Output constraint: value belongs to YES = active, NO = inactive

The following compounds have reported results that may help.
| COMPOUND | CATEGORY_LABEL |
| --- | --- |
| O=C(O)C(Cl)(Cl)Cl | NO |
| C=CCN1CCC23c4c5ccc(O)c4O[C@H]2C(=O)CC[C@@]3(O)C1C5 (stereo partly drawn) | NO |
| CNC(=O)Oc1ccccc1C(=O)Nc1ccccc1 | NO |
| CC(C)CCON=O | NO |
| CN1C2CCC1CC(OC(c1ccccc1)c1ccc(Cl)cc1)C2 (stereo not drawn) | YES |
| CC(Cc1ccccc1)NC=O (stereo not drawn) | NO |
| COC1=CC=C2[C@H]3Cc4ccc(OC)c5c4[C@@]2(CCN3C)[C@H]1O5 | NO |
| CCCC(C)C1(CC)C(=O)NC(=O)NC1=O (stereo not drawn) | NO |

Tell me the recorded outcome of this test for COc1ccc(OC)c(C(O)C(C)N)c1 (stereo not drawn) .
NO

Tell me the recorded outcome of this test for `S=C=S` .
NO

Tell me the recorded outcome of this test for `C=CCN(C1=NCCN1)c1c(Cl)cccc1Cl` .
NO

Tell me the recorded outcome of this test for `C[C@]12CCC(=O)C[C@@H]1CC[C@@H]1[C@@H]2CC[C@]2(C)[C@@H](O)CC[C@@H]12` .
NO

Tell me the recorded outcome of this test for `O=Cc1ccco1` .
NO
